System: Malme-3M
measurement protocol: NCI tumour cell line growth inhibition, 48 h
Activity calls are given as the source filed them. Rule as the data show it: active = GI50 up to about 1.1 µM and inactive = higher.
Hi there, I'd appreciate the recorded GI50 for every entry that follows.

Recorded GI50 for CC1OC(OC2C(OC(=O)[C@]34CCC(C)(C)C[C@H]3C3=CC[C@@H]5[C@@]6(C)CC[C@H](OC7OC(C(=O)O)C(O)C(O)C7O)C(C)(C)[C@@H]6CC[C@@]5(C)[C@]3(C)C[C@H]4O)OCC(O)C2O)C(O)C(OC2OCC(O)(CO)C2O)C1OC1OCC(O)C(O)C1O (some centres undefined) , please?
11.6 µM (inactive)

Recorded GI50 for C=C1CC2(CC(c3ccccc3Cl)OC(c3ccccc3Cl)C2)OC1=O (centres undefined) , please?
3.57 µM (inactive)

Recorded GI50 for N#Cc1ccc2oc3ccc(C#N)cc3c(=O)c2c1 , please?
24.2 µM (inactive)

Recorded GI50 for Cc1ccc(/C=C/C(=N/NC(=O)N/N=C(/C=C/c2ccc(C)cc2)C(C)C)C(C)C)cc1 , please?
> 10 µM (inactive)

---

Test system: UO-31
measurement protocol: NCI tumour cell line growth inhibition, 48 h
Active and inactive are the calls of the source. Cut-off read from the data, not from the text of the source: active = GI50 up to about 1.1 µM and inactive = higher.
Hi there, I'd appreciate the recorded GI50 for every entry that follows.

Recorded GI50 for OC1=C2c3ccccc3NC2Oc2cc(F)ccc21 (centres undefined) , please?
13.9 µM (inactive)

Recorded GI50 for COc1ccc(C(C)NNC(=O)c2ccncc2)cc1OC (centres undefined) , please?
> 100 µM (inactive)

Recorded GI50 for CCCCCCCCCCCCc1ccsc1-c1ccc(-c2ccc(-c3sc(-c4cc(CCCCCCCCCCCC)c(-c5ccc(-c6ccc(-c7sccc7CCCCCCCCCCCC)s6)s5)s4)cc3CCCCCCCCCCCC)s2)s1 , please?
> 100 µM (inactive)

Recorded GI50 for N#CC(C(=O)C(=O)Nc1ccccc1)c1ccccc1 (centres undefined) , please?
> 100 µM (inactive)

Recorded GI50 for CO[C@@H]1C[C@H]2N3CC[C@@]2(c2cc4c(cc2C3)OCO4)[C@H]2O[C@@H]12 , please?
> 100 µM (inactive)

Recorded GI50 for COc1cc2c(cc1Oc1ccc(OC)c3c1CC1c4c(cc(OC)c(OC)c4-3)CCN1C)CC1c3c(cc(OC)c(OC)c3-2)CCN1C (centres undefined) , please?
3.88 µM (inactive)

Recorded GI50 for N#CCCOCN(CO)c1nc(N(CO)COCCC#N)nc(N(CO)COCCC#N)n1 , please?
21.7 µM (inactive)

Recorded GI50 for CCCc1cn2c(/C=N/NC(=N)N)c(-c3ccc(Cl)c([N+](=O)[O-])c3)nc2s1 , please?
1.76 µM (inactive)

Recorded GI50 for CCN(CC)CC(C)(C)C(=O)/C=C/c1ccc(/C=C/C(=O)C(C)(C)CN(CC)CC)cc1 , please?
1.8 µM (inactive)

Recorded GI50 for O=C(NNc1cn[nH]c(=O)c1Cl)/C(=C/c1ccc2c(c1)OCO2)NC(=O)c1ccccc1 , please?
48.2 µM (inactive)

Recorded GI50 for Cn1c(O)c(C(=O)Nc2cccs2)c(=O)[nH]c1=S , please?
12.2 µM (inactive)

Recorded GI50 for Cc1cc(NS(=O)(=O)c2ccc(NC(=O)c3cccc4c(Nc5ccc(S(N)(=O)=O)cc5)c5ccccc5nc34)cc2)no1 , please?
35.6 µM (inactive)

Recorded GI50 for CC(NCc1c(O)ccc2ccc(=O)oc12)C(=O)O (centres undefined) , please?
> 100 µM (inactive)

Recorded GI50 for [O-][S+](c1ccc(O)cc1)c1ccc(O)cc1 , please?
> 100 µM (inactive)

---

Test system: NCI-H522
measurement protocol: NCI tumour cell line growth inhibition, 48 h
Activity calls are given as the source filed them. Rule as the data show it: active = GI50 up to about 1.1 µM and inactive = higher.
value type: GI50

Recorded GI50 for COC(=O)C1=CCC[C@H]2[C@@]1(COC(C)=O)CC[C@@H](C)[C@]2(C)CC(=O)c1ccoc1 , please?
7.87 µM (inactive)

Recorded GI50 for COc1ccc(NC(=O)C2C(=O)N(c3ccc(OC)cc3)C(=O)/C2=N/O)cc1 (stereo not drawn) , please?
22.7 µM (inactive)

Recorded GI50 for N#Cc1ccc2oc3ccc(C#N)cc3c(=O)c2c1 , please?
58.2 µM (inactive)

Recorded GI50 for N#CC(C#N)=C(N)/C(C#N)=C\c1ccnc2ccccc12 , please?
30 µM (inactive)

Recorded GI50 for Cc1ccc(S(=O)(=O)Nn2c(S)c(C#N)c(-c3ccc(N(C)C)cc3)c(C#N)c2=O)cc1 , please?
14.5 µM (inactive)

Recorded GI50 for C=CCCCC(C#N)(c1ccccc1)N1CCCC1 (stereo not drawn) , please?
> 100 µM (inactive)

Recorded GI50 for COc1cc(CSc2ccc(O)cc2)cc(OC)c1OC , please?
29.3 µM (inactive)

Recorded GI50 for Brc1cc2nn(-c3ccccc3)nc2c2nonc12 , please?
> 100 µM (inactive)

Recorded GI50 for CC(C)CC(NC(=O)C(CSc1ccc([N+](=O)[O-])cc1)Cc1ccccc1)C(=O)Nc1ccccc1 (stereo not drawn) , please?
64.9 µM (inactive)

Recorded GI50 for Cc1ccc(NC(=O)c2ccc(OP(=O)(O)Nc3ccc(C)cc3)cc2)cc1 , please?
78.3 µM (inactive)

Recorded GI50 for CCC(=O)O[C@H]1CC[C@H]2[C@@H]3CCC4=CC(=O)C=C[C@]4(O)[C@H]3CC[C@]12C , please?
16.7 µM (inactive)

Recorded GI50 for CCOC(=O)c1c(C)[nH]c2c1c(CN(C)C)c(O)c1nc(C)c(C)nc12 , please?
16.3 µM (inactive)

Recorded GI50 for CCCCCCCCCC(=O)N[C@H]1CCc2cc(OC)c(OC)c(OC)c2-c2ccc(SC)c(=O)cc21 , please?
< 0.01 µM (active)

Recorded GI50 for c1ccc([P+](Cc2ccc(C[P+](c3ccccc3)(c3ccccc3)c3ccccc3)cc2)(c2ccccc2)c2ccccc2)cc1 , please?
62.2 µM (inactive)

Recorded GI50 for COC(=O)CCc1cc(OC)c2oc(-c3ccc(OC)c(OC)c3)c(CO)c2c1 , please?
> 100 µM (inactive)

Recorded GI50 for COc1cc2c(cc1Oc1ccc(OC)c3c1CC1c4c(cc(OC)c(OC)c4-3)CCN1C)CC1c3c(cc(OC)c(OC)c3-2)CCN1C (stereo not drawn) , please?
2.09 µM (inactive)

Recorded GI50 for Cc1cc(NS(=O)(=O)c2ccc(NC(=O)c3cccc4c(Nc5ccc(S(N)(=O)=O)cc5)c5ccccc5nc34)cc2)no1 , please?
41.6 µM (inactive)

Recorded GI50 for O=c1oc2ccc3ccccc3c2cc1-c1cn2ccccc2n1 , please?
26.3 µM (inactive)

Recorded GI50 for Nc1nc(O)c2c(ncn2CC(O)CO)n1 (stereo not drawn) , please?
> 100 µM (inactive)

Recorded GI50 for CCOC(=O)/C=C(/C(=O)OCC)n1cc(C)c(=O)[nH]c1=O , please?
0.792 µM (active)

Recorded GI50 for c1ccc(CN2CCc3[nH]c4ccccc4c3C2)cc1 , please?
18.1 µM (inactive)

Recorded GI50 for CC1=CC2=C(C#N)C(=O)OC2(C)C(c2ccccc2)C1 (stereo not drawn) , please?
> 100 µM (inactive)

Recorded GI50 for CN(CCCCN1CCCC1)CCCCN(C)C(=O)Cc1ccc(Cl)c(Cl)c1 , please?
11.5 µM (inactive)

Recorded GI50 for C=C(c1ccccc1)c1cc2c(=O)[nH]ccc2n1C , please?
16.3 µM (inactive)

Recorded GI50 for CCc1ccccc1NC(=O)C1=C(C)NC(C)=C(C(=O)Nc2ccccc2CC)C1c1cccc([N+](=O)[O-])c1 , please?
22.2 µM (inactive)

Recorded GI50 for Cc1nc(N)nc(S)c1CCCNc1ccccc1 , please?
34.4 µM (inactive)

Recorded GI50 for COC(=O)[C@H]1ON2O[C@@H](O[C@H]3CCCC[C@@H]3C(C)(C)c3ccccc3)C[C@@H]3CC[C@H]1[C@@]32C , please?
> 100 µM (inactive)

Recorded GI50 for O=C(Nc1ccc2nc(-c3ccccc3)cn2c1)Oc1ccccc1 , please?
20.2 µM (inactive)

Recorded GI50 for CN(C)C(n1cc2c(c1)-c1ccc(Cl)cc1C(c1ccccc1F)=NC2)n1cc2c(c1)-c1ccc(Cl)cc1C(c1ccccc1F)=NC2 , please?
81.8 µM (inactive)

Recorded GI50 for O=C(NO)NCCCl , please?
> 100 µM (inactive)

Recorded GI50 for Cc1ccc2nc(/C=N/c3ccc(Cl)cc3)cc(C)c2c1 , please?
2.65 µM (inactive)

Recorded GI50 for O=C(Nc1cccc(Cl)c1)c1cc2cc(/N=N/c3ccc(Br)cc3)ccc2oc1=O , please?
49.4 µM (inactive)

Recorded GI50 for CCOC(=O)C1CCC(=O)N1C(=O)c1ccc(Cl)cc1 (stereo not drawn) , please?
> 100 µM (inactive)

Recorded GI50 for Cc1cc(O)c(C(C)C)cc1NC(=O)Nc1cccc2ccccc12 , please?
15.1 µM (inactive)

Recorded GI50 for N#CC(C#N)=C1NC(=O)CC(=O)N1 , please?
> 100 µM (inactive)

Recorded GI50 for Cc1nn(-c2ccccc2)c(-c2ccccc2[N+](=O)[O-])c1CC#N , please?
22.2 µM (inactive)

Recorded GI50 for CC(C)C[C@H](NC(=O)[C@@H](Cc1cccc2ccccc12)NC(=O)N1CCOCC1)B(O)O , please?
1.92 µM (inactive)

Recorded GI50 for C=C1C(=O)OC2C(C)C3C=CC(=O)[C@@]3(C)C(OC(=O)/C(C)=C/C)C1[C@@H]2OC(C)=O (stereo partly drawn) , please?
0.131 µM (active)
